Each entry below carries its recorded kon.
Target: soluble cyno CD74 (cyno)
Sequence (P04233 other isoform, or with tags, fused parts or gaps): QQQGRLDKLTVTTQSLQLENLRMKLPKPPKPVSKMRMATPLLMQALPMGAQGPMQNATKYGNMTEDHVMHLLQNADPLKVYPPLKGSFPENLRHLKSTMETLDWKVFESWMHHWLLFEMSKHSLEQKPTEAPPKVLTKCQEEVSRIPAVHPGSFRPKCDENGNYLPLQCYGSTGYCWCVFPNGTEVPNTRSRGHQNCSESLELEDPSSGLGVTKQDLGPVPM
Experiment: SPR, Biacore 8K; IgG captured by anti-IgG Fc, soluble CD74 as analyte; 1:1 model, apparent kinetics
Number only, in M⁻¹ s⁻¹; omit the unit.

{"BINDER": "VHmil x VK1bNQ (antibody, V domains shown, Tested as IgG; also called VHmil × VK1bNQ; hLL1 heavy chain with hzLL1-Vk1b (NQ) light chain) VH: QVQLQQSGSELKKPGASVKVSCKASGYTFTNYGVNWIKQAPGQGLQWMGWINPNTGEPTFDDDFKGRFAFSLDTSVSTAYLQISSLKADDTAVYFCSRSRGKNEAWFAYWGQGTLVTVSS VL: DVVMTQSPLSLPVTLGQPASISCRSSQSLVHRNQNTYLHWYQQRPGQSPRLLIYTVSNRFSGVPDRFSGSGSGTDFTLKISRVEAEDVGVYFCSQSSHVPPTFGQGTKLEIK", "UNIT_TAG": "M⁻¹ s⁻¹", "VALUE_REPORTED": 110000}
{"BINDER": "VHmil x VK1aNQ (antibody, V domains shown, Tested as IgG; also called VHmil × VK1aNQ; hLL1 heavy chain with hzLL1-Vk1a (NQ) light chain) VH: QVQLQQSGSELKKPGASVKVSCKASGYTFTNYGVNWIKQAPGQGLQWMGWINPNTGEPTFDDDFKGRFAFSLDTSVSTAYLQISSLKADDTAVYFCSRSRGKNEAWFAYWGQGTLVTVSS VL: DIVMTQTPLSLPVTPGEPASISCRSSQSLVHRNQNTYLHWYLQKPGQSPQLLIYTVSNRFSGVPDRFSGSGSGTDFTLKISRVEAEDVGVYFCSQSSHVPPTFGQGTKLEIK", "UNIT_TAG": "M⁻¹ s⁻¹", "VALUE_REPORTED": 100000}

Task: Given the binder Mil_HCx hzVk1a (antibody, V domains shown, Tested as IgG; also called hLL1 heavy chain with hzLL1-Vk1a light chain) VH: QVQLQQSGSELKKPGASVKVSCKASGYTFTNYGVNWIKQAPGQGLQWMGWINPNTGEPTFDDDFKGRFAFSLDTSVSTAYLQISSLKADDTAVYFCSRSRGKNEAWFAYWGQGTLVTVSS VL: DIVMTQTPLSLPVTPGEPASISCRSSQSLVHRNGNTYLHWYLQKPGQSPQLLIYTVSNRFSGVPDRFSGSGSGTDFTLKISRVEAEDVGVYFCSQSSHVPPTFGQGTKLEIK , what is its reported kon?
Result: 100000
